Settings: human gut metagenome, 24 h, 2 µM;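 further: anaerobic incubation with a human gut microbial community sample, drug level tracked by LC–MS at 9 sampling points across 0–24 h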; further: call rule not given here
QUANTITY_NAME: Bacterial Biotransformation

{"COMPOUND": "CC(C)NCC(O)COc1ccc(CC(N)=O)cc1 (stereo not given)", "QUANTITY_NAME": "Bacterial Biotransformation", "EXPERIMENTAL_RESULT": "Compound metabolized"}
{"COMPOUND": "CCOC(=O)C1=C(C)NC(C)=C(C(=O)OC)C1c1cccc([N+](=O)[O-])c1 (stereo not given)", "QUANTITY_NAME": "Bacterial Biotransformation", "EXPERIMENTAL_RESULT": "Compound metabolized"}
{"COMPOUND": "C[C@@H](c1ncncc1F)[C@](O)(Cn1cncn1)c1ccc(F)cc1F", "QUANTITY_NAME": "Bacterial Biotransformation", "EXPERIMENTAL_RESULT": "Compound NOT metabolized"}
{"COMPOUND": "c1ccc2[nH]c(-c3cscn3)nc2c1", "QUANTITY_NAME": "Bacterial Biotransformation", "EXPERIMENTAL_RESULT": "Compound NOT metabolized"}
{"COMPOUND": "CC(C)(C)NC[C@H](O)COc1nsnc1N1CCOCC1.O=C(O)/C=C\\C(=O)O [TIMOLOL MALEATE]", "QUANTITY_NAME": "Bacterial Biotransformation", "EXPERIMENTAL_RESULT": "Compound NOT metabolized"}
